Source of measurements: paper PMC5970165

Test description: in vivo
Study conditions: male, C57BL/6 J, mouse, iv, 1 mg/kg, Vz_obs
Measured metric: Vd (L)
The figure you give is taken to be in L; do not add the unit.

### Prompt Any idea what Vd was measured for CC(=O)N[C@@H](Cc1ccccc1)C(=O)N[C@H]1CCCNC(=O)[C@H](CCCNC(=N)N)NC(=O)[C@H](Cc2c[nH]c3ccccc23)NC(=O)[C@@H](CC2CCCCC2)NC(=O)[C@@H]2CCCN2C1=O [PMX53, Ac-Phe-[Orn-Pro-dCha-Trp-Arg]] ?
### Response 0.00826

* * *

Test description: in vivo
Study conditions: male, C57BL/6 J, mouse, iv, 1 mg/kg, Vss_obs
Measured metric: Vd

### Prompt Any idea what Vd was measured for CC(=O)N[C@@H](Cc1ccccc1)C(=O)N[C@H]1CCCNC(=O)[C@H](CCCNC(=N)N)NC(=O)[C@H](Cc2c[nH]c3ccccc23)NC(=O)[C@@H](CC2CCCCC2)NC(=O)[C@@H]2CCCN2C1=O [PMX53, Ac-Phe-[Orn-Pro-dCha-Trp-Arg]] ?
### Response 0.00328 L
